The measured values listed here are drawn from patent US8846746B2.

# Tested on: human SGLT1 (Homo sapiens (Human), UniProt P13866)
# Sequence (P13866 whole entry): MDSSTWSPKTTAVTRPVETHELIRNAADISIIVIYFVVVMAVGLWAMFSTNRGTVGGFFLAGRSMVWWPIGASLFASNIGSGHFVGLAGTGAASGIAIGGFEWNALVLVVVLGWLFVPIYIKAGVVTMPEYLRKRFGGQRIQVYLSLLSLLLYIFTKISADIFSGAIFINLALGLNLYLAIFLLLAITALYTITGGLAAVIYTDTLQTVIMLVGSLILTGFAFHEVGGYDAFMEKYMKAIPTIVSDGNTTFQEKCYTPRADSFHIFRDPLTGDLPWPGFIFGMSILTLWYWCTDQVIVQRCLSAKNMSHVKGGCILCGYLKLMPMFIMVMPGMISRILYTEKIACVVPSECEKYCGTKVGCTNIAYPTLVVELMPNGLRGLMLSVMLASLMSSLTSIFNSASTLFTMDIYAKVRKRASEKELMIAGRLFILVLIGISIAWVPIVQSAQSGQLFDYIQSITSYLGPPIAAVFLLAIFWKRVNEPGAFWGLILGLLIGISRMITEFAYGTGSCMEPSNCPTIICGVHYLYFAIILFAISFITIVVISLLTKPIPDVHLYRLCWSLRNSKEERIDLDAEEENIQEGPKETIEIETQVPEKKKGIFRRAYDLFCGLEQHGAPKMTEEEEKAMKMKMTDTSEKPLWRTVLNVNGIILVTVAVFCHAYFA
# Test summary: SGLT1 inhibitory activity: 14C-AMG uptake into CHO-K1 cell line stably expressing human SGLT1
# Assay type: cell-based
# Study conditions: 14C-AMG uptake, CHO-K1 cells expressing human SGLT1
pIC50: −log10 of the molar value.
Property label: pIC50

| Molecule | Numeric result |
| --- | --- |
| CC(C)(C)c1cccc(-c2cc(NC(=O)[C@H]3CNC(=O)C3)nn2CCC2CCCCC2)c1 | 7.55 |
| CC1(C)CCC=C(c2cc(NC(=O)[C@H]3CNC(=O)C3)nn2-c2ccccc2)C1 | 8.11 |
| C[C@H]1C(=O)NC[C@@H]1C(=O)Nc1cc(-c2cccc(OC(F)(F)F)c2)n(-c2ccc(F)cc2)n1 | 8.47 |
| CCCc1cc(F)cc(-c2cc(NC(=O)[C@H]3CNC(=O)C3)nn2-c2ccccc2)c1 | 8.51 |
| Cc1ccccc1-n1nc(NC(=O)[C@H]2CNC(=O)C2)cc1-c1cccc(OCC(F)(F)F)c1 | 8.48 |
| CCCc1cc(-c2cc(NC(=O)[C@@H]3CNC(=O)C3)nn2-c2ccccc2)ccc1F | 7.10 |

1. C[C@H]1C(=O)NC[C@@H]1C(=O)Nc1cc(-c2cccc(OCC(F)(F)F)c2)n(-c2cccc(F)c2)n1
2. CCCc1cccc(-c2cc(NC(=O)[C@H]3CNC(=O)C3)nn2Cc2ccccc2)c1
3. O=C1C[C@@H](C(=O)Nc2cc(C3=CCCCC3)n(-c3ccccc3)n2)CN1
Reorder the items by pIC50, least to greatest. Would you mind listing the labels in the order asked for?
3, 2, 1
(3: 6.38, 2: 7.52, 1: 8.39)

A. CC(C)Cc1cccc(-c2cc(NC(=O)[C@@H]3CNC(=O)C3)nn2-c2ccccc2)c1
B. CC1(C)CCCC(c2cc(NC(=O)[C@H]3CNC(=O)C3)nn2-c2ccccc2)C1 (single isomer, unassigned) [Example 89]
// select label with min value of measured pIC50 from [ A , B ] Kindly state the label of the option you pick.
B
(B: 6.85, A: 8.46)

1. CC(C)(C)c1cccc(-c2cc(NC(=O)[C@H]3CNC(=O)C3)nn2-c2ccc(Cl)cc2)c1
2. O=C1C[C@H](C(=O)Nc2cc(C3CCCCC3)n(-c3ccccc3)n2)CN1
Thinking about recorded pIC50 values, which is higher, 1 or 2 ? Kindly state the label of the option you pick.
1
(1: 8.48, 2: 5.72)

P. CCC(F)(F)c1cccc(-c2cc(NC(=O)[C@H]3CNC(=O)[C@@H]3C)nn2-c2cccc(F)c2)c1
Q. C[C@H]1C(=O)NC[C@@H]1C(=O)Nc1cc(-c2cccc(C(F)(F)F)c2)n(-c2ccccc2Cl)n1
// select label with min value of measured pIC50 from [ P , Q ] Kindly state the label of the option you pick.
P
